Assay: 14-day daily oral repeated-dose exploratory study in CD-1 mice (mesylate salt)
Type: in vivo
Settings: male, CD-1, mouse, in vivo, po, 10 mg/kg, M, Day 14
experimental readout: AUC(0-t) (ng·h/mL)
Answers are plain numbers, in ng·h/mL.

Query: Find the recorded AUC(0-t) belonging to CC(C)C[C@@H]1NCCN([C@@H](CC(C)C)C(=O)N2CCC3(C[C@@H]2C)OCC(CN2CCCC2)CO3)C1=O (stereo partly shown) [Compound 1] and report it.
Result: 782

----------
Assay: 5-day daily oral repeated-dose pilot study in Beagle dogs (mesylate salt)
Type: in vivo
Details: both sexes, Beagle, dog, plasma, po, 1.5 mg/kg, Day 1; read-out: elimination half-life (converted)
experimental readout: half-life (min)
Give bare numbers, in min.

Query: Find the recorded half-life belonging to CC(C)C[C@@H]1NCCN([C@@H](CC(C)C)C(=O)N2CCC3(C[C@@H]2C)OCC(CN2CCCC2)CO3)C1=O (stereo partly shown) and report it.
Result: 270

----------
Assay: 14-day daily oral repeated-dose DRF study in cynomolgus monkeys (mesylate salt)
Assay type: in vivo
Details: both sexes, cynomolgus monkey, plasma, po, 8 mg/kg, 8 mg/kg (Gr. 4), Day 5
experimental readout: AUC(0-t)
The answer should read as a number with its unit following.

Query: Find the recorded AUC(0-t) belonging to CC(C)C[C@@H]1NCCN([C@@H](CC(C)C)C(=O)N2CCC3(C[C@@H]2C)OCC(CN2CCCC2)CO3)C1=O (stereo partly shown) and report it.
Result: 51.3 ng·h/mL

----------
Test: 28-day once weekly oral repeated-dose DRF study in cynomolgus monkeys (mesylate salt)
Format: in vivo
Conditions: female, cynomolgus monkey, blood, po, 60 mg/kg, F, Day 1
experimental readout: Cmax (ng/mL)
Give bare numbers, in ng/mL.

Query: Find the recorded Cmax belonging to CC(C)C[C@@H]1NCCN([C@@H](CC(C)C)C(=O)N2CCC3(C[C@@H]2C)OCC(CN2CCCC2)CO3)C1=O (stereo partly shown) and report it.
Result: 1830

----------
Assay: Single dose oral and intravenous PK in CD-1 mice (mesylate salt), blood
Type: in vivo
Conditions: male, CD-1, mouse, whole blood; oral 50 mg/kg
experimental readout: half-life (min)
Answers are plain numbers, in min.

Query: Find the recorded half-life belonging to CC(C)C[C@@H]1NCCN([C@@H](CC(C)C)C(=O)N2CCC3(C[C@@H]2C)OCC(CN2CCCC2)CO3)C1=O (stereo partly shown) [Compound 1] and report it.
Result: 156

----------
Assay: 14-day daily oral repeated-dose exploratory study in CD-1 mice (mesylate salt)
Format: in vivo
Settings: male, CD-1, mouse, in vivo, po, 10 mg/kg, M, Day 14
experimental readout: Cmax (ng/mL)
One number for each entry, in ng/mL.

Query: Find the recorded Cmax belonging to CC(C)C[C@@H]1NCCN([C@@H](CC(C)C)C(=O)N2CCC3(C[C@@H]2C)OCC(CN2CCCC2)CO3)C1=O (stereo partly shown) [Compound 1] and report it.
Result: 105

----------
Assay: 28-day once weekly oral repeated-dose DRF study in cynomolgus monkeys (mesylate salt)
Format: in vivo
Conditions: male, cynomolgus monkey, blood, po, 60 mg/kg, M, Day 22
experimental readout: half-life (h)
One number for each entry, in h.

Query: Find the recorded half-life belonging to CC(C)C[C@@H]1NCCN([C@@H](CC(C)C)C(=O)N2CCC3(C[C@@H]2C)OCC(CN2CCCC2)CO3)C1=O (stereo partly shown) [Compound 1] and report it.
Result: 5.7

----------
Test: 14-day daily oral repeated-dose DRF study in Beagle dogs (citrate salt)
Format: in vivo
Conditions: both sexes, Beagle, dog, plasma, po, 0.1 mg/kg/day, Day 1; read-out: mean Cmax plasma levels
experimental readout: Cmax
The answer should read as a number with its unit following.

Query: Find the recorded Cmax belonging to CC(C)C[C@@H]1NCCN([C@@H](CC(C)C)C(=O)N2CCC3(C[C@@H]2C)OCC(CN2CCCC2)CO3)C1=O (stereo partly shown) and report it.
Result: 0.6 ng/mL

----------
Experiment: Single dose oral and intravenous PK in CD-1 mice (mesylate salt), blood
Type: in vivo
Conditions: male, CD-1, mouse, whole blood; oral 20 mg/kg
experimental readout: Tmax (min)
Numbers only, in min.

Query: Find the recorded Tmax belonging to CC(C)C[C@@H]1NCCN([C@@H](CC(C)C)C(=O)N2CCC3(C[C@@H]2C)OCC(CN2CCCC2)CO3)C1=O (stereo partly shown) [Compound 1] and report it.
Result: 10.2

----------
Assay: 28-day once weekly oral repeated-dose DRF study in cynomolgus monkeys (mesylate salt)
Type: in vivo
Details: male, cynomolgus monkey, whole blood, po, 45 mg/kg, M, Day 1
experimental readout: Tmax (h)
Answers are plain numbers, in h.

Query: Find the recorded Tmax belonging to CC(C)C[C@@H]1NCCN([C@@H](CC(C)C)C(=O)N2CCC3(C[C@@H]2C)OCC(CN2CCCC2)CO3)C1=O (stereo partly shown) and report it.
Result: 1.5

----------
Assay: 28-day once weekly oral repeated-dose DRF study in cynomolgus monkeys (mesylate salt)
Format: in vivo
Conditions: male, cynomolgus monkey, whole blood, po, 30 mg/kg, M, Day 1; read-out: AUC0-Tlast
Experimental: The objective of the study was to determine the TK profile of Compound 1 following 4 weekly oral administrations to cynomolgus monkeys and to assess reversibility of any changes following a 13-day recovery period. Male and female cynomolgus monkeys (n=1/sex/group) were orally administered Compound 1 (mesylate salt) at dose levels of 30, 45, 60, or 90 mg/kg/administration for 4 consecutive doses on study days 1, 8, 15, and 22. The vehicle was 0.5% (w/v) methyl cellulose 400 in sterile water. […]
experimental readout: AUC(0-t) (ng·h/mL)
Numbers only, in ng·h/mL.

Query: Find the recorded AUC(0-t) belonging to CC(C)C[C@@H]1NCCN([C@@H](CC(C)C)C(=O)N2CCC3(C[C@@H]2C)OCC(CN2CCCC2)CO3)C1=O (stereo partly shown) and report it.
Result: 721

----------
Test: Single dose oral gavage or intravenous PK in female cynomolgus monkeys, plasma
Assay type: in vivo
Conditions: female, cynomolgus monkey, plasma; IV 0.6 mg/kg
experimental readout: AUC(0-inf) (ng·h/mL)
Answers are plain numbers, in ng·h/mL.

Query: Find the recorded AUC(0-inf) belonging to CC(C)C[C@@H]1NCCN([C@@H](CC(C)C)C(=O)N2CCC3(C[C@@H]2C)OCC(CN2CCCC2)CO3)C1=O (stereo partly shown) [Compound 1] and report it.
Result: 244

----------
Assay: 28-day once weekly oral repeated-dose DRF TK study in Beagle dogs (mesylate salt), plasma
Type: in vivo
Settings: both sexes, Beagle, dog, plasma, po, 15 mg/kg, 15 mg/kg weekly, Day 1
experimental readout: Cmax (ng/mL)
Answers are plain numbers, in ng/mL.

Query: Find the recorded Cmax belonging to CC(C)C[C@@H]1NCCN([C@@H](CC(C)C)C(=O)N2CCC3(C[C@@H]2C)OCC(CN2CCCC2)CO3)C1=O (stereo partly shown) and report it.
Result: 752

----------
Test: 14-day daily oral repeated-dose DRF study in cynomolgus monkeys (mesylate salt)
Format: in vivo
Settings: both sexes, cynomolgus monkey, plasma, po, 8 mg/kg, 8 mg/kg (Gr. 3), Day 1
experimental readout: Tmax (h)
Give bare numbers, in h.

Query: Find the recorded Tmax belonging to CC(C)C[C@@H]1NCCN([C@@H](CC(C)C)C(=O)N2CCC3(C[C@@H]2C)OCC(CN2CCCC2)CO3)C1=O (stereo partly shown) and report it.
Result: 1

----------
Assay: 14-day daily oral repeated-dose DRF study in cynomolgus monkeys (mesylate salt)
Type: in vivo
Conditions: both sexes, cynomolgus monkey, plasma, po, 12 mg/kg, 12 mg/kg (Gr. 2), Day 7
experimental readout: Cmax (ng/mL)
Numbers only, in ng/mL.

Query: Find the recorded Cmax belonging to CC(C)C[C@@H]1NCCN([C@@H](CC(C)C)C(=O)N2CCC3(C[C@@H]2C)OCC(CN2CCCC2)CO3)C1=O (stereo partly shown) [Compound 1] and report it.
Result: 48.8

----------
Assay: 14-day daily oral repeated-dose DRF study in Beagle dogs (citrate salt)
Format: in vivo
Conditions: both sexes, Beagle, dog, plasma, po; all doses, Day 1; read-out: elimination half-life
experimental readout: half-life

Query: Find the recorded half-life belonging to CC(C)C[C@@H]1NCCN([C@@H](CC(C)C)C(=O)N2CCC3(C[C@@H]2C)OCC(CN2CCCC2)CO3)C1=O (stereo partly shown) and report it.
Result: 3.4 to 6.2 h

----------
Test: Single dose intravenous and oral PK in Beagle dogs (citrate salt)
Type: in vivo
Settings: both sexes, Beagle, dog, whole blood; IV 1 mg/kg
experimental readout: half-life (min)
Give bare numbers, in min.

Query: Find the recorded half-life belonging to CC(C)C[C@@H]1NCCN([C@@H](CC(C)C)C(=O)N2CCC3(C[C@@H]2C)OCC(CN2CCCC2)CO3)C1=O (stereo partly shown) and report it.
Result: 30

----------
Assay: Single dose oral gavage or intravenous PK in female cynomolgus monkeys, plasma
Assay type: in vivo
Settings: female, cynomolgus monkey, plasma; Day 22 (IV 0.6 mg/kg); read-out: mean volume of distribution (Vz)
experimental readout: Vd (L/kg)
One number for each entry, in L/kg.

Query: Find the recorded Vd belonging to CC(C)C[C@@H]1NCCN([C@@H](CC(C)C)C(=O)N2CCC3(C[C@@H]2C)OCC(CN2CCCC2)CO3)C1=O (stereo partly shown) and report it.
Result: 16.9
